Taken from ChEMBL document CHEMBL1201862.

system: Streptococcus sp. 'group A'; test: growth inhibition of control SK(-) GAS strain, dose response, counter-screen for streptokinase expression inhibitor project, luminescence, kanamycin, BacTiterGlo, confirmation (AID 1900); format: functional, organism-based
The source made the active and inactive calls.
Measured attribute: EC50

Before answering, review these 3 worked examples.
>>> recorded_result("SC1=NC[C@H](CC2CCCCC2)N1CC1CCCCC1")
"12.6 µM (active)"
>>> recorded_result("Cc1nnc(SCC2=C(C(=O)O)N3C(=O)C(NC(=O)Cn4nc(C)c(Cl)c4C)C3SC2)s1 (configuration not stated)")
"< 0.06 µM (active)"
>>> recorded_result("COc1ccc(C(=O)CSc2nc(-c3ccccn3)nc(C)c2Cl)cc1")
"7.92 µM (active)"

Q: Requested read-out: EC50. Entry: O=C(NC1CCCCC1)NC1C2CC3CC(C2)CC1C3 (configuration not stated)
A: > 150 µM (not active)

Q: Next: "O=C(Nc1nnc(C2CC2)o1)c1ccc(S(=O)(=O)N2CCCc3ccccc32)cc1"
A: 2.46 µM (active)

Q: Try the molecule "CC1(C)Oc2ccc3ccc(=O)oc3c2C(/C=N/NC(N)=S)=C1O"
A: 3.2 µM (active)

Q: Cool, now "O=C(Nc1ccc(OC(F)(F)F)cc1)N1CCN(c2ccnc3cc(Cl)ccc23)CC1"
A: 9.61 µM (active)

* * *

molecular target: Long-chain-fatty-acid--AMP ligase FadD28 (Mycobacterium tuberculosis); test: Fluorescence polarization aasay to screen for inhibitors that compete for the binding of FadD28 to a bisubstrate Measured in Biochemical System Using Plate Reader - 2147-01_Inhibitor_Dose_CherryPick_Activity.; type: functional, Mycobacterium tuberculosis H37Rv
Sequence (P9WQ59 whole entry): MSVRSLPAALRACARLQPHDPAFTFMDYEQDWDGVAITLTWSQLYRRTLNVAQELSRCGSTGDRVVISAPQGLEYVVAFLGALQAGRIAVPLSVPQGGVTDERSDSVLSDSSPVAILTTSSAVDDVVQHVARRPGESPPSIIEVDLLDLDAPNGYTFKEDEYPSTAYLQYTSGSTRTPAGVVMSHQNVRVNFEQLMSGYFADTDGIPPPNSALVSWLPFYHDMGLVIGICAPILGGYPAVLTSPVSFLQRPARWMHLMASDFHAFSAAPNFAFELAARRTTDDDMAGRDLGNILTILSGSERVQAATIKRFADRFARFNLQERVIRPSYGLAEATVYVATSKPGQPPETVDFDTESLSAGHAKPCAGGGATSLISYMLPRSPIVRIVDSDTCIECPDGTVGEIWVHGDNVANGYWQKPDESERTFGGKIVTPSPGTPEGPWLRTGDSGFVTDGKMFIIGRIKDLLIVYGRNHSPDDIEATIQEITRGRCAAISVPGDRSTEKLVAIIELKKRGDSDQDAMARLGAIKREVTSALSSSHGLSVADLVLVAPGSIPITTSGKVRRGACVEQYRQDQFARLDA
The source made the active and inactive calls.
Return exactly one item of active, inactive

The examples below pair each entry with its known result.
>>> category_label("O=C(COc1ncnc2c1cnn2-c1ccccc1)Nc1ccc(S(=O)(=O)N2CCCCC2)cc1")
"inactive"
>>> category_label("O=C(O)c1[nH]c2ccccc2c1C(c1cc(Cl)cc([N+](=O)[O-])c1O)c1c(C(=O)O)[nH]c2ccccc12")
"active"
>>> category_label("O=c1oc2c(cc1O)oc(=O)c1cc(O)c(O)c(O)c12")
"active"
>>> category_label("COc1ccc(/C=C2\\CCCc3c2nc2ccc(C)cc2c3C(=O)O)cc1O")
"active"

Then this compound:
Q: Which outcome was assigned to "CCc1ccccc1NC(=O)CN(C)C(=O)CSc1nnc(Nc2cccc(C)c2C)s1" in this test?
A: active

* * *

molecular target: UniProt Q96LD8; assay type: functional
Sequence (Q96LD8 whole entry): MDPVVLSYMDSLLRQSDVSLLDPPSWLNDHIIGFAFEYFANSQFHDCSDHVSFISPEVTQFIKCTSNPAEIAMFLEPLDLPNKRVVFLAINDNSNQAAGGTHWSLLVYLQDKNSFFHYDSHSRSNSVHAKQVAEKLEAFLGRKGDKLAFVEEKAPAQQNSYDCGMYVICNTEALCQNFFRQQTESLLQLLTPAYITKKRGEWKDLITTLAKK
Active and inactive are the calls of the source.
Reported IC50 values are given for each entry in this list.

>>> recorded_result("O=C(Nc1ccccc1)Nc1ccccc1C(=O)NCc1ccccc1")
"> 100 µM (inactive)"

Q: Would you mind telling me what IC50 value was observed for "COc1ccc(C(=O)COC(=O)c2ccccc2O)c(OC)c1" ?
A: 53.1 µM (active)

Q: Next record, please: "O=C(COC(=O)c1ccc([N+](=O)[O-])s1)c1ccc[nH]1"
A: 5.37 µM (active)

Q: Now the compound "Cc1ccc(O)c(C2=Nc3ccccc3C2(C)C)c1"
A: 26.9 µM (active)

Q: Try this compound too: "O=c1[nH]c(/C=C/c2ccccc2Cl)nc2ccccc12"
A: > 100 µM (inactive)

Q: Okay, and "Brc1c(-c2ccccc2)nc2n1Cc1ccccc1-2" ?
A: 7.57 µM (active)

Q: Same question for "CCOC(=O)/C(C#N)=C/c1ccc(N2CCCCC2)cc1" please.
A: 31.6 µM (active)

Q: What do you have for "O=C(OCc1ccccc1Cl)c1cccnc1Cl" ?
A: 27.3 µM (active)

Q: Moving on to "Oc1[nH]c2ccccc2c1N=Nc1nc2ccccc2s1"
A: > 100 µM (inactive)

Q: What about this compound? "Clc1cccc(-c2ccc(-c3nc4ccccn4c3NCc3ccccc3)cc2)c1"
A: 18 µM (active)
